Each recorded value in this set is attributed to ChEMBL document CHEMBL1201862.

Tested on: CCRF-CEM
protocol_summary: NCI tumour cell line growth inhibition, 48 h
The source made the active and inactive calls. Cut-off read from the data, not from the text of the source: active = GI50 up to about 1.1 µM and inactive = higher.
Thanks in advance; please answer with one of these: 1 (yes) (active), 0 (no) (inactive)

A selection of reference data follows.
{"compound": "O=C(O)C(Cc1ccc(O)c([N+](=O)[O-])c1)N1C(=O)c2ccccc2C1=O (stereo unspecified)", "label_value": "0 (no)"}
{"compound": "O=c1c2c3ccccc3[nH]c2c2cccc3c2n1CCC3", "label_value": "0 (no)"}
{"compound": "c1ccc2sc(SCSc3nc4ccccc4s3)nc2c1", "label_value": "0 (no)"}
{"compound": "O=C(NNC(=O)c1ccccc1O)c1ccccc1O", "label_value": "1 (yes)"}
{"compound": "CCOC(=O)C1=NN(c2ccccc2)C(=O)/C1=C\\NC(=S)C(N)=S", "label_value": "0 (no)"}
{"compound": "CC(=O)NC1(NC(C)=O)C2CC(C1Cc1ccccc1)C(C)(C)C2C (stereo unspecified)", "label_value": "0 (no)"}
{"compound": "CC1(C)OC(=O)N(c2ccccc2)C12C=Cc1cccc([N+](=O)[O-])c1O2 (stereo unspecified)", "label_value": "0 (no)"}
{"compound": "O=C1NC2CCCCC2N=C1CC(=O)c1ccc(Br)cc1 (stereo unspecified)", "label_value": "0 (no)"}
{"compound": "Cn1c(=O)n2n(c1=O)[C@@H](c1ccccc1)[C@H]2c1ccccc1", "label_value": "0 (no)"}
{"compound": "O=C1OC(c2ccccc2)=N/C1=C\\c1cccc(F)c1", "label_value": "0 (no)"}

Now let's try a different one.
Given C=C(C)C1CC=C(C)C2(C1)OCC(C)(C)C(C)O2 (stereo unspecified) , state the outcome it received in this test. 0 (no)

----------
Test system: MOLT-4
protocol_summary: NCI tumour cell line growth inhibition, 48 h
Activity calls are given as the source filed them. Rule as the data show it: active = GI50 up to about 1.1 µM and inactive = higher.
metric_name: GI50

Return reported GI50. Input compound: CSc1nc(Br)nc2ncn(C3CC(Oc4ccc(C)cc4)C(COc4ccc(C)cc4)O3)c12 (stereo not drawn) > 100 µM (inactive)

Return reported GI50. Input compound: `CN(CCN)[C@H](CSSC[C@@H](c1ccccc1O)N(C)CCN)c1ccccc1O` 4.73 µM (inactive)

Return reported GI50. Input compound: `O=C1c2ccccc2-n2c1nc1ccc([N+](=O)[O-])cc1c2=O` 26.3 µM (inactive)

Return reported GI50. Input compound: `COc1cc(C(=O)C/C(CCC(=O)Nc2ccc(Cl)cc2Cl)=N/NC(=O)C(N)=O)ccc1O` > 100 µM (inactive)

Return reported GI50. Input compound: COc1cc(/C=C2\CCC/C(=C\c3ccc(OC(=O)CCCCC4CCSS4)c(OC)c3)C2=O)ccc1OC(=O)CCCCC1CCSS1 (stereo not drawn) > 100 µM (inactive)

Return reported GI50. Input compound: `O=C1c2ccccc2C(=O)N1Cc1ccccc1-c1c2nc(c(-c3ccccc3CN3C(=O)c4ccccc4C3=O)c3ccc([nH]3)c(-c3ccccc3CN3C(=O)c4ccccc4C3=O)c3nc(c(-c4ccccc4CN4C(=O)c5ccccc5C4=O)c4ccc1[nH]4)C=C3)C=C2` > 100 µM (inactive)

Return reported GI50. Input compound: `CCOc1cccc2sc(N)nc12` > 100 µM (inactive)

Return reported GI50. Input compound: O=C(CCSC(CC(=O)c1ccc(Cl)cc1)c1ccc(Cl)cc1)Nc1ccc(Cl)cc1 (stereo not drawn) 3.01 µM (inactive)
